- assay-notes: In vivo mouse pharmacokinetics, paired oral co-dosing, plasma and brain
- Set-up: species or system mice
- condition-label: brain, 10 mg/kg po co-dosed, 0.5 hr, read-out: Brain concentration
- Description: In a first study, the compounds of Examples 2 to 6 are compared to the Compound of Formula A (Example 1) using standard procedures in mice. In each test, two compounds are co-dosed in a single animal and the relative pharmacokinetics in plasma and brain is determined. […] After single dose oral administration of the test compounds together, plasma and brain levels are measured at 0.25, 0.5, 1, 2, 4, and 6 hours post-dosing. […]
concentration at 0.5 hr overview
Report the value in ng/g with no unit label.

Completed entries (count: 4):
[2H]c1nc([2H])n(CC(=O)[C@H]2CC[C@H]3[C@@H]4CC[C@H]5C[C@@](O)(COC([2H])([2H])[2H])CC[C@]5(C)[C@H]4CC[C@]23C)c1[2H] [Example 4] = 5070
[2H]c1nc([2H])n(C([2H])C(=O)[C@@]2([2H])CC[C@H]3[C@@H]4CC[C@H]5C[C@@](O)(COC([2H])([2H])[2H])CC[C@]5(C)[C@H]4CC[C@@]32C)c1[2H] (stereo partly drawn) [Example 6] = 5350
[2H]C(C(=O)[C@@]1([2H])CC[C@H]2[C@@H]3CC[C@H]4C[C@@](O)(COC([2H])([2H])[2H])CC[C@]4(C)[C@H]3CC[C@@]21C)n1ccnc1 (stereo partly drawn) [Example 5] = 5540
[2H]c1nc([2H])n(CC(=O)[C@H]2CC[C@H]3[C@@H]4CC[C@H]5C[C@@](O)(COC)CC[C@]5(C)[C@H]4CC[C@]23C)c1[2H] [Example 2] = 5590

In: Complete the entry with concentration at 0.5 hr for [2H]C([2H])([2H])OC[C@@]1(O)CC[C@@]2(C)[C@@H](CC[C@@H]3[C@@H]2CC[C@]2(C)[C@@H](C(=O)Cn4ccnc4)CC[C@@H]32)C1 [Example 3]
Out: 2000

In: Complete the entry with concentration at 0.5 hr for COC[C@@]1(O)CC[C@@]2(C)[C@@H](CC[C@@H]3[C@@H]2CC[C@]2(C)[C@@H](C(=O)Cn4ccnc4)CC[C@@H]32)C1 [Example 1]
Out: 2230

====

- assay-notes: In vivo mouse pharmacokinetics, paired oral co-dosing, plasma and brain
- Design: species or system mice
- condition-label: plasma, 10 mg/kg po co-dosed, 0.25 hr, read-out: Plasma concentration
measurement-type: concentration at 0.25 hr
Include the unit right after the number.

[2H]C(C(=O)[C@@]1([2H])CC[C@H]2[C@@H]3CC[C@H]4C[C@@](O)(COC([2H])([2H])[2H])CC[C@]4(C)[C@H]3CC[C@@]21C)n1ccnc1 (stereo partly drawn) = 1490 ng/mL
COC[C@@]1(O)CC[C@@]2(C)[C@@H](CC[C@@H]3[C@@H]2CC[C@]2(C)[C@@H](C(=O)Cn4ccnc4)CC[C@@H]32)C1 = 2270 ng/mL

# next molecule below
In: Complete the entry with concentration at 0.25 hr for [2H]C([2H])([2H])OC[C@@]1(O)CC[C@@]2(C)[C@@H](CC[C@@H]3[C@@H]2CC[C@]2(C)[C@@H](C(=O)Cn4ccnc4)CC[C@@H]32)C1
Out: 2170 ng/mL

Data provenance is patent US12325726B2.
